# credit: the Human Domainome abundance scans (Beltran et al. 2025)

abundance fitness reference
B1: Kinesin-like protein KIF16B, residues 1213 to 1273; numbered along this chain, Q96L93 (parent)
chain: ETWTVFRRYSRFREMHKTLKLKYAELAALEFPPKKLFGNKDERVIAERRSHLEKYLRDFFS

# Variants of: B1
# Assay Notes: abundance fitness (aPCA) (normalised: wild type 0, dead -1); higher = more abundant; growth selection in yeast, the domain comes from the species named
# Test Conditions: Homo sapiens
Could you respond with only the numeric value?

Take a look at these entries with their results.
> print(dat)
   mutant.code  test.value
1         E47G       0.243
2         E53T       0.317
3         K22M      -0.153
4         S10P       0.135
5         L26D      -0.573

Inquiry: State its abundance fitness for this variant: F37E
Reply text: -0.407

Inquiry: State its abundance fitness for this variant: Y55V
Reply text: -0.082

Inquiry: State its abundance fitness for this variant: S61A
Reply text: -0.263
